Kindly supply the reported viability at 28.5 h, 10 µM values for the records listed here.
PROCEDURE TEXT: in vitro
CONDITION PARAMETERS: human, hela cells, % viability
Write the number in % without appending the unit.

Dear colleague, I am looking for the recorded viability at 28.5 h, 10 µM of the following compound: COc1ccc(NC(=O)c2ccc(N(C)Cc3ccccc3)c([N+](=O)[O-])c2)cc1 86.4

Param item: Cn1nccc1C(=O)NC(Cc1ccsc1)c1nccs1 (stereo not shown) 98.1

Param item: CCC1CCC2(CC1)NC(=O)N(Cc1nc(-c3cccs3)no1)C2=O (stereo not shown) 92.6

Param item: Cc1cc(C)n(CCCn2cncc2-c2cn(C)nc2C)n1 94.8

Param item: Oc1ccc(-c2n[nH]cc2-c2cnn(-c3ccccc3)c2)c(O)c1O 104

Param item: Cc1noc(C)c1NC(=O)c1cncnc1 112

Param item: COc1ccc(CNC(=O)C(=O)NCc2ccccc2)cc1 103

Param item: Cc1ccc(S(=O)(=O)N2CCN(CCC(=O)O)CC2)cc1C 93.3

Param item: Nc1ccn([C@@H]2O[C@H](CO)[C@H](O)C2O)c(=S)n1 (stereo partly shown) 90.9

Param item: O=C(O)C[C@]1(C(=O)NC2CCCCCC2)CC(/C=C/c2ccccc2)=NO1 75.9

* * *

PROCEDURE TEXT: in vitro
CONDITION PARAMETERS: human, hela cells, % viability
Kindly supply the reported viability at 28.5 h, 10 µM values for the records listed here.
Write the number in % without appending the unit.

Dear colleague, I am looking for the recorded viability at 28.5 h, 10 µM of the following compound: O=C(c1cscn1)N1CCCc2ccccc21 102

Param item: Nc1nnc(SC/C=C/CSc2nnc(N)s2)s1 90.3

Param item: CCOC(=O)c1c(NC(=O)CSc2nc[nH]n2)sc2c1CCC2 94.5

Param item: COc1cc(C(=O)Nc2ccccc2C(=O)N2CCN(C)CC2)cc(OC)c1OC 88.5

Param item: COc1c(C(=O)Nc2ccc(CN3CCOCC3)cc2)cc2ccccc2c1Br 103

Param item: NS(=O)(=O)c1ccc(Nc2nc(-c3ccccc3)c(CC(=O)O)s2)cc1 91.6

Param item: COc1ccc2[nH]cc(CCNC(=O)c3cc(-c4cccc(NC(C)=O)c4)cnc3N(C)S(C)(=O)=O)c2c1 101

Param item: Clc1ccc(Nc2nnns2)cc1Cl 100

Param item: COCCC(=O)NCc1ccccc1OC1CCNC1 (centres unmarked) [CBK024504T] 136

Param item: CCN(CC)S(=O)(=O)c1cc(C(=O)NC2CCCCC2)ccc1Br 96.3

Param item: O=c1n(Cc2cccnc2)c2cccnc2n1Cc1cccs1 89.7

Param item: c1ccc(N2CCN(c3nc(-c4ccoc4)cn4ccnc34)CC2)nc1 99.7

Param item: CC(C)(CC(=O)O)CC(=O)Nc1cccc(CCc2ccncc2)c1 99.3

Param item: CCN(Cc1ccncc1)C(CC1CCCCC1)c1ccccc1 (centres unmarked) [CBK061639T] 97.3

Param item: CN1CC(c2ccccc2)CC2(CCN(CCCn3cnnn3)CC2)C1 (centres unmarked) 95

Param item: Cc1ccc(CN(Cc2cncn2C)CC2CCCO2)o1 (centres unmarked) 93.2

Param item: Cc1cn(CC(=O)N2CCN(C(=O)c3ccco3)CC2)c(=O)[nH]c1=O 87.7

Param item: Cn1ccnc1C1(O)CCN(C(=O)c2ccc(F)cc2)CC1 91.5

Param item: CN(C)c1oc(-c2ccccc2)nc1S(=O)(=O)c1ccccc1 105

Param item: COc1ccccc1Oc1ccc(S(=O)(=O)N2CCOCC2)cc1S(=O)(=O)N1CCOCC1 97.2

* * *

Kindly supply the reported viability at 28.5 h, 10 µM values for the records listed here.
PROCEDURE TEXT: in vitro
CONDITION PARAMETERS: human, hela cells, % viability
Write the number in % without appending the unit.

Dear colleague, I am looking for the recorded viability at 28.5 h, 10 µM of the following compound: O=C(NCCc1ccccc1)C1CCN(C(=O)c2cccc(F)c2)CC1 82.2

Param item: N#Cc1nc(-c2ccccc2)oc1NCCN1CCCCC1 93.5

Param item: O=C(NCc1ccc(Cl)c(Cl)c1)Nc1cccc(C(=O)O)c1 [CBK155461G] 109

Param item: CC(=O)c1cc(C(=O)Nc2ccc(NC(=O)C(=O)O)cc2)oc1C 95.4

Param item: COc1cccc(C(=O)Nc2nc(-c3ccc(S(=O)(=O)N4CCCC4)cc3)cs2)c1 89

* * *

Kindly supply the reported viability at 28.5 h, 10 µM values for the records listed here.
PROCEDURE TEXT: in vitro
CONDITION PARAMETERS: human, hela cells, % viability
Write the number in % without appending the unit.

Dear colleague, I am looking for the recorded viability at 28.5 h, 10 µM of the following molecule: C=CCOc1ccccc1OCCCN1CCN(C)CC1 [CBK269714C] 95.6

Param item: O=C(O)c1ccc(Cl)c2c1C1C=CCC1C(c1ccccn1)N2 (centres unmarked) 86.9

Param item: CN1CCN(C(=O)c2[nH]c3ccccc3c2NS(=O)(=O)/C=C/c2ccccc2)CC1 106

Param item: CN(Cc1ccc(N2CCCCC2)cc1)S(=O)(=O)c1ccsc1C(=O)O 85.5

Param item: CN1CCCc2ccc(S(=O)(=O)Nc3ccc4nncn4c3)cc21 98.6

Param item: CC(=O)Nc1ccc(NCc2csc(C3CCCO3)n2)c(C(F)(F)F)c1 (centres unmarked) 101

Param item: CC(C)(c1ccc(Oc2ccc3c(c2)C(=O)N(c2nccs2)C3=O)cc1)c1ccc(Oc2ccc3c(c2)C(=O)N(c2nccs2)C3=O)cc1 103

Param item: CCCC(=O)NC(NC(=S)Nc1ccccc1Cl)C(Cl)(Cl)Cl (centres unmarked) 106

Param item: CC(O)(CC#N)c1ccccc1 (centres unmarked) 114

Param item: Nc1nc2cc3c(cc2[nH]1)OCO3 96.6

Param item: CCCCCn1c(=O)c(C(=O)Nc2cccc(O)c2)c(O)c2ccccc21 111

Param item: CS(=O)(=O)c1cccc(-c2nnc(NC(=O)c3ccccc3)o2)c1 82.4

Param item: CCc1nc2ccc(NC(=O)c3csc(C(C)=O)c3)cc2[nH]1 114

Param item: CC(=O)N[C@H](C)Cn1nnc2ccccc21 88

Param item: CCc1csc(CCNc2ccc(-c3nc(C4CC4)no3)cn2)n1 91.3

Param item: O=C(CS(=O)(=O)Cc1ccccc1)Nc1ccc(S(=O)(=O)N2CCOCC2)cc1 88.8

Param item: COCC1CN(S(=O)(=O)c2cnc3ccsc3c2)C1 72.4

Param item: COc1cc(-c2nnc(NC(=O)c3ccc(C)cc3)o2)cc(OC)c1OC 92.2

Param item: COc1cc(CNc2nc[nH]n2)ccc1OCc1ccc(C)cc1 113

Param item: COCCNc1nc(-c2cccc3ccccc23)cnc1N 99.1

* * *

Kindly supply the reported viability at 28.5 h, 10 µM values for the records listed here.
PROCEDURE TEXT: in vitro
CONDITION PARAMETERS: human, hela cells, % viability
Write the number in % without appending the unit.

Dear colleague, I am looking for the recorded viability at 28.5 h, 10 µM of the following compound: Cc1cc(C)n(CCCC(=O)NCCc2cn3ccccc3n2)n1 94.6

Param item: Cc1cc(NC(=O)CCCc2ccccc2)nc2c1c(=O)oc1ccccc12 109

Param item: CCc1nn2c(=O)cc(CN3C(=O)COc4cccnc43)nc2s1 88.9

Param item: O=C(O)CC(NC(=O)OCc1ccccc1)c1ccccc1 (stereo not shown) 107

Param item: CC(=O)N1CC[C@H](c2nc3cccc(C(N)=O)c3[nH]2)C1 98.3

Param item: Oc1ccc(/N=C/c2ccc(/C=N/c3ccc(O)cc3)cc2)cc1 98.5

Param item: COc1cc(CNn2cnnc2S)ccc1OCC(N)=O 90

Param item: CS(=O)(=O)c1ccc(-c2nccnc2NCc2cccnc2)cc1 104

Param item: CC#Cc1cn([C@H]2C[C@@H](O)[C@@H](CO)O2)c(=O)nc1N 105

Param item: Cc1ccc(C(C)C(=O)N2CCC(O)(c3ccccn3)CC2)cc1 (stereo not shown) 86.7

* * *

PROCEDURE TEXT: in vitro
CONDITION PARAMETERS: human, hela cells, % viability
Kindly supply the reported viability at 28.5 h, 10 µM values for the records listed here.
Write the number in % without appending the unit.

Dear colleague, I am looking for the recorded viability at 28.5 h, 10 µM of the following compound: Cc1ccc(/C=N/N=C2/N=C(O)C(CC(=O)Nc3ccccc3C(F)(F)F)S2)o1 (centres unmarked) 104

Param item: CCc1cc(Br)ccc1S(=O)(=O)Nc1ccnn1CC 92.7

Param item: COc1ccc(C(C)c2cc3c(cc2O)OCO3)cc1 (centres unmarked) 90.3

Param item: OCc1ccccc1-c1cncc(N2CCN(c3ccncc3)CC2)n1 113

Param item: CCC1c2cccn2CCN1C(=O)c1cc(-c2ccccn2)n[nH]1 (centres unmarked) 102

Param item: COC(=O)c1c(NC(=O)COc2ccccc2Cl)sc2c1CCC(c1ccccc1)C2 (centres unmarked) 90.3

Param item: OCCSc1ccc(C(F)(F)F)cn1 115

Param item: Clc1ccc(OCc2n[nH]c(-c3ccccn3)n2)cc1 90.2

Param item: CCOCCCNC(=O)c1ncoc1-c1ccc(F)cc1 92.6

Param item: O=C(Cc1ccccc1)N1CCN(Cc2ccc3ccccc3c2)CC1 112

Param item: Cc1nccn1C(C(=O)NCC1(C)COC1)c1ccccc1 (centres unmarked) 97.9

Param item: Cc1cc(C)nc(N2CCC(CC(=O)NC(C)CCN3CCCCCC3)CC2)n1 (centres unmarked) 96.4

Param item: O=S(=O)(Cc1ccccc1)Nc1cccc2[nH]ccc12 76.6

Param item: Cc1nc(C2CCN(C(=O)c3ccn(C)n3)CC2)c2sccn12 93.4

Param item: COc1cc(/C=C2/SC(=S)N(CC(=O)O)C2=O)cc(Br)c1OCc1ccccn1 115

Param item: COc1ccc(NC2=N[C@H]3[C@@H](O)[C@H](O)C[C@H](C(=O)N(C)Cc4ccccc4)[C@H]3S2)cc1 96.7

Param item: COc1ccc(CCC(=O)Nc2ncccc2OCCCC#N)cc1 105

Param item: COc1ccc(-c2nnc(SCCC(=O)O)n2C)cc1OC 98.8

Param item: COc1cccc(CC(=O)N2CCC(Cc3ccccc3-c3cccs3)(C(N)=O)CC2)c1 112

Param item: Cc1cccc(C(=O)N[C@@H](C)Cn2nc3c(cc2=O)CCCC3)c1 89.1
